Test system: intestinal alkaline phosphatase [Mus musculus]
EXPERIMENT DESCRIPTION: mouse intestinal phosphatase enzyme activation – biochemical, luminescence, single concentration, confirmation (AID 434970)
MEASUREMENT PARAMETERS: purified mouse IAP, CDP-Star luminescence, 30 min, at 10 µM; measured here: IAP activation factor, stronger effect = higher value
About 310 (2.8%) of roughly 11,000 compounds were called active. Only a selection was taken, and actives are over-represented in it overall.
Please mark Y if the recorded activation factor is equal to or greater than 2, and N if it falls below.

**Query** hey, is activation factor for this one >= 2? "Cc1ccc(SCc2nc3ccccc3n2CC(=O)Nc2ccc(Cl)cc2)cc1"
**Result** N

**Query** hey, is activation factor for this one >= 2? Cc1ccc(C(=O)NC(C)c2nc3ccccc3n2CC(=O)Nc2c(C)cc(C)cc2C)cc1 (stereo unspecified)
**Result** N

**Query** hey, is activation factor for this one >= 2? "O=C(CCn1cnc2ccccc2c1=O)Nc1cccc(Cl)c1"
**Result** N

**Query** hey, is activation factor for this one >= 2? "Cc1ccc(SCc2nc3ccccc3n2CC(=O)Nc2ccccc2)cc1"
**Result** N

**Query** hey, is activation factor for this one >= 2? "O=C(Cn1c(-c2ccccc2Cl)nc2ccccc21)Nc1cccc(Cl)c1"
**Result** Y

**Query** hey, is activation factor for this one >= 2? "Cc1cc(C)cc(NC(=O)CCc2nc3ccccc3[nH]2)c1"
**Result** N
